experiment: Droxidopa solubility at room temperature at different pH; format: physicochemical; conditions: solution of pH 1.2 (composition not stated), pH 1.2, simulated gastric fluid

{"columns": ["compound", "solubility / mg/mL"],
 "data": [
  ["N[C@H](C(=O)O)[C@H](O)c1ccc(O)c(O)c1 [droxidopa]", 15.5]
]}
